Below, each of the compounds is paired with its reported MCV value.
Species: Rattus norvegicus
protocol-text: Open TG-GATES - Regimen: Daily Repeat
Assay type: toxicity, organism-based, Sprague-Dawley
Design: regimen Daily Repeat, gender Male, age 6 weeks
condition: in vivo, po, 300 mg/kg, 72 h, tissue Blood, route gavage, dose level Middle, time 3 day

compound	MCV / fL
O=C(N[C@H](CO)[C@H](O)c1ccc([N+](=O)[O-])cc1)C(Cl)Cl	65.1
O=C(O)c1cccnc1	63.4
CC(C)(S)[C@@H](N)C(=O)O	64.1
CCN1CCCC1CNC(=O)c1cc(S(N)(=O)=O)ccc1OC (centres undefined) [SULPIRIDE]	62.7

====

Organism: Rattus norvegicus
protocol-text: Open TG-GATES - Regimen: Daily Repeat
Format: toxicity, organism-based, Sprague-Dawley
Design: regimen Daily Repeat, gender Male, age 6 weeks
condition: in vivo, po, 0 mg/kg, 72 h, tissue Blood, route gavage, dose level Control, time 3 day
parameter-measured: Lym (%)

compound	parameter-measured	reported-measurement
C#C[C@]1(O)CC[C@H]2[C@@H]3CCc4cc(O)ccc4[C@H]3CC[C@@]21C	Lym	79
CC(C)C(=O)Nc1ccc([N+](=O)[O-])c(C(F)(F)F)c1 [FLUTAMIDE]	Lym	79
CC(C)(S)[C@@H](N)C(=O)O	Lym	75.8
CCC(C)(C)C(=O)O[C@H]1C[C@@H](C)C=C2C=C[C@H](C)[C@H](CC[C@@H]3C[C@@H](O)CC(=O)O3)[C@H]21	Lym	78.8
C[C@](N)(Cc1ccc(O)c(O)c1)C(=O)O	Lym	72.4
CCSCC[C@H](N)C(=O)O	Lym	78.2
CCN1CCCC1CNC(=O)c1cc(S(N)(=O)=O)ccc1OC (stereo unspecified) [SULPIRIDE]	Lym	81.6
CC(=N)S [THIOACETAMIDE]	Lym	74.8
Oc1ncnc2[nH]ncc12	Lym	74.6
O=C(N[C@H](CO)[C@H](O)c1ccc([N+](=O)[O-])cc1)C(Cl)Cl	Lym	71.6
Nc1nc(N)c2nc(-c3ccccc3)c(N)nc2n1	Lym	78.8
CC(=O)Oc1cc(C(C)C)c(OCCN(C)C)cc1C	Lym	81.2
CN1C(=O)OC(C)(C)C1=O	Lym	79.8
C[C@]12CCC(=O)C=C1CC[C@@H]1[C@@H]2CC[C@@]2(C)[C@H]1CC[C@]2(C)O	Lym	78.4
O=C(O)c1cccnc1	Lym	81.2
CCc1oc2ccccc2c1C(=O)c1cc(I)c(O)c(I)c1	Lym	76.2

====

Species on record: Rattus norvegicus
protocol-text: Open TG-GATES - Regimen: Daily Repeat
Type: toxicity, organism-based, Sprague-Dawley
Design: regimen Daily Repeat, gender Male, age 6 weeks
condition: in vivo, po, 0 mg/kg, […], tissue Plasma, route gavage, dose level Control, time 28 day
Listing: TP of selected compounds
parameter-measured: TP (g/dL)

structure-smiles	parameter-measured	reported-measurement
O=C(O)c1cccnc1	TP	5.9
CC(=O)Oc1cc(C(C)C)c(OCCN(C)C)cc1C	TP	5.9
Oc1ncnc2[nH]ncc12	TP	6.2
CN1C(=O)OC(C)(C)C1=O	TP	6.3
CCSCC[C@H](N)C(=O)O	TP	6.1
C#C[C@]1(O)CC[C@H]2[C@@H]3CCc4cc(O)ccc4[C@H]3CC[C@@]21C	TP	6.3
